assay: A CellTox Green Cytotoxicity Assay to monitor cytotoxicity in HEK293 cells - 16 hour (AID 1224888); conditions: CellTox Green fluorescence; series mostly up to 76.8 µM; also: nearly all actives have a fitted effect of over 35% in size
Records with an inconclusive call do not appear. The source made the active and inactive calls. Calls follow the shape of the dose curve; as a rule, active = well fitted activation curve with a large enough effect in the repeat runs; inconclusive = weak or mixed curves; inactive = flat fitted curve, though single readings scatter.
Pick one and only one: active, inactive

A selection of reference data follows.
[
  {
    "molecule": "O=C(O)C(O)C(O)C(=O)O (configuration not stated)",
    "group": "inactive"
  },
  {
    "molecule": "NNCCO",
    "group": "inactive"
  }
]

Input line: Recorded test call requested for `COc1ccccc1N1CCNCC1`
Output line: inactive

Input line: Could you check what this test reported for `CCCCCCCCP(=O)(O)O` ?
Output line: inactive

Input line: How was `Cc1ncc(C[n+]2csc(CCO)c2C)c(N)n1` classified in this test?
Output line: inactive

Input line: Field: outcome | Entry: `CC(C)c1ccc(OP(=O)(Oc2ccc(C(C)C)cc2)Oc2ccc(C(C)C)cc2)cc1`
Output line: inactive

Input line: What was the test verdict on CCCCC(CC)CO[N+](=O)[O-] (configuration not stated) ?
Output line: inactive
